Cited source: paper PMC6481345

Test system: SK-MEL-23 melanoma cells
Assay method text: CellTiter-Glo Luminescent Cell Viability Assay
Type: cell-based
Test context: Homo sapiens, SK-MEL-23, WT/WT, 72 hrs
Quantity measured: IC50 (nM)
Answer with a number only, understood to be in nM.

Can you share its IC50? I mean this compound: `Nc1ncnc2c1c(-c1ccc(Oc3ccccc3)cc1)nn2C[C@@H]1SSC[C@@H]1O`
162

----------
Assay system: YES1 (Homo sapiens)
Sequence (P07947 whole entry): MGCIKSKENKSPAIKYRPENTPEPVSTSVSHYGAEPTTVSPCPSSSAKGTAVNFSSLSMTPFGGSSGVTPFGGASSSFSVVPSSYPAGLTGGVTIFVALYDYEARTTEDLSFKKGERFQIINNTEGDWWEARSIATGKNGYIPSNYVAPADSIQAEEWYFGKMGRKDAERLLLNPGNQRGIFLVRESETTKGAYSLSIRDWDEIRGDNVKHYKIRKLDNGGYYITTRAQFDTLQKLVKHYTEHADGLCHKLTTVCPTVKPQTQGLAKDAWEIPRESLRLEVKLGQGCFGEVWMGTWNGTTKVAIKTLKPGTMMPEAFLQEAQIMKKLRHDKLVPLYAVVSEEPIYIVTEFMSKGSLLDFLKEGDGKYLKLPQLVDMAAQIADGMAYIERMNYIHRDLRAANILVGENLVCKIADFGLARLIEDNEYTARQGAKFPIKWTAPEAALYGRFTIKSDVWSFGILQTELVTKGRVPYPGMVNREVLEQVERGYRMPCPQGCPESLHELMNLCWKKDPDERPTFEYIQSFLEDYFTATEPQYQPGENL
Assay method text: KiNativ in situ kinase profiling in melanoma cell lysates
Type: binding
Design: the endogenous kinome response to SAB298 (0.05 µM, 0.5 µM and 5 µM) in lysates from two melanoma cell lines; host or cells: YUSIV melanoma cell lysate (not present in YUSIK)
Test context: YES1 in YUSIV lysate; 3-point dose response
Quantity measured: IC50

I'm curious: which IC50 was measured for Nc1ncnc2c1c(-c1ccc(Oc3ccccc3)cc1)nn2C[C@@H]1SSC[C@@H]1O [SAB298] tested on YES1 (Homo sapiens)?
< 10 nM
